system: PANC-1; assay: Cytotoxicity against human PANC-1 cells assessed as inhibition of cell proliferation incubated for 4 hrs by MTS assay; assay type: functional, cell-based; conditions: PANC-1, 4 h
Where a SMILES comes first, the peptide text is derived from it. [ ]: non-standard residue; d: D form. ξ: configuration not given here. Bip = N[C@@H](Cc1ccc(-c2ccccc2)cc1)C(=O)O; ξDip = NC(C(=O)O)C(c1ccccc1)c1ccccc1
Attribute: IC50
Write down the numeric answer in µM and omit the unit.

Example compounds with recorded IC50:
Compound	Quantity unit	Readout number
NCCCC[C@H](NC(=O)[C@H](Cc1c[nH]c2ccccc12)NC(=O)[C@H](Cc1c[nH]c2ccccc12)NC(=O)[C@H](CCCCN)NC(=O)[C@H](CCCCN)NC(=O)[C@H](Cc1c[nH]c2ccccc12)NC(=O)[C@H](Cc1ccc(-c2ccccc2)cc1)NC(=O)[C@H](CCCCN)NC(=O)[C@@H](N)CCCCN)C(N)=O (H-KK[Bip]WKKWWK-NH2)	µM	9.5
NCCCC[C@H](NC(=O)C(NC(=O)[C@H](Cc1c[nH]c2ccccc12)NC(=O)[C@H](CCCCN)NC(=O)[C@H](CCCCN)NC(=O)[C@H](Cc1c[nH]c2ccccc12)NC(=O)[C@H](Cc1c[nH]c2ccccc12)NC(=O)[C@H](CCCCN)NC(=O)[C@@H](N)CCCCN)C(c1ccccc1)c1ccccc1)C(N)=O (stereo partly drawn) (H-KKWWKKW[ξDip]K-NH2)	µM	3.8

Read the next record carefully.
### Prompt Give the measured IC50 for N=C(N)NCCC[C@H](NC(=O)[C@H](Cc1c[nH]c2ccccc12)NC(=O)[C@H](Cc1c[nH]c2ccccc12)NC(=O)[C@H](CCCNC(=N)N)NC(=O)[C@H](CCCNC(=N)N)NC(=O)C(NC(=O)[C@H](Cc1c[nH]c2ccccc12)NC(=O)[C@H](CCCNC(=N)N)NC(=O)[C@@H](N)CCCNC(=N)N)C(c1ccccc1)c1ccccc1)C(N)=O (stereo partly drawn) (H-RRW[ξDip]RRWWR-NH2)
### Response 12.5
